These entries and their values trace back to paper PMC11538350.

As shown below, each of these compounds has a reported MIC value.
System: S. aur. ATCC-29213
protocol_description: MIC assay
Assay type: cell-based
test_context: Staphylococcus aureus, ATCC29213; reference strain; read-out: MIC S. aur. ATCC-29213
property_name: MIC

INSERT INTO results (compound, result) VALUES
  ('C#CCC(NC(=O)c1ccc(NC(=O)c2ccc(C#N)cc2)cc1)C(=O)Nc1ccc(C(=O)Nc2ccc(C(=O)Nc3ccc(C(=O)O)cc3)c(Cl)c2OC(C)C)cc1 (stereo not drawn)', '> 64 mg/L'),
  ('C#CC[C@H](NC(=O)c1ccc(NC(=O)c2ccc(C#N)cc2)cc1)C(=O)Nc1ccc(C(=O)Nc2ccc(C(=O)Nc3ccc(C(=O)O)cc3)c(O)c2CC(C)C)cc1', '16 to 32 mg/L'),
  ('C#CC[C@H](NC(=O)c1ccc(NC(=O)c2ccc(C#N)cc2)cc1)C(=O)Nc1ccc(C(=O)Nc2cc(O)c(C(=O)Nc3ccc(C(=O)O)cc3)cc2OC(C)C)cc1', '> 64 mg/L'),
  ('C#CC[C@H](NC(=O)c1ccc(NC(=O)c2ccc(C#N)cc2)cc1)C(=O)Nc1ccc(C(=O)Nc2ccc(CNc3ccc(C(=O)O)cc3)c(O)c2OC(C)C)cc1', '16 to 32 mg/L'),
  ('C#CC[C@H](NC(=O)c1ccc(NC(=O)c2ccc(C#N)cc2)cc1)C(=O)Nc1ccc(C(=O)Nc2ccc3c(=O)n(-c4ccc(C(=O)O)cc4)c(C)nc3c2OC(C)C)cc1 [Cmpd. 45a]', '4 mg/L'),
  ('C#CC[C@H](NC(=O)c1ccc(NC(=O)c2ccc(C#N)cc2)cc1)C(=O)Nc1ccc(C(=O)Nc2ccc(C(=O)Nc3ccc(C(=O)O)cc3)c(F)c2OC(C)C)cc1', '> 64 mg/L'),
  ('C#CC[C@H](NC(=O)c1ccc(NC(=O)c2ccc(C#N)cc2)cc1)C(=O)Nc1ccc(CNc2ccc(C(=O)Nc3ccc(C(=O)O)cc3)c(O)c2OC(C)C)cc1', '0.5 to 1 mg/L'),
  ('O=C(O)c1cn(C2CC2)c2cc(N3CCNCC3)c(F)cc2c1=O [CIP, ciprofloxacin, reference compound]', '0.2 to 1 mg/L'),
  ('C#CC[C@H](NC(=O)c1ccc(NC(=O)c2ccc(C#N)cc2)cc1)C(=O)Nc1ccc(C(=O)Nc2ccc(-c3ncc4cc(C(=O)O)ccc4n3)c(O)c2OC(C)C)cc1', '> 64 mg/L'),
  ('CO[C@@H](C(N)=O)[C@H](NC(=O)c1ccc(NC(=O)c2ccc(C#N)cc2)cc1)C(=O)Nc1ccc(C(=O)Nc2ccc(C(=O)Nc3ccc(C(=O)O)cc3)c(C(F)F)c2OC(C)C)cc1', '> 64 mg/L'),
  ('C#CC[C@H](NC(=O)c1ccc(NC(=O)c2ccc(C#N)cc2)cc1)C(=O)Nc1ccc(C(=O)Nc2ccc(C(=O)Nc3ccc(C(=O)O)cc3)c(N)c2OC(C)C)cc1', '> 64 mg/L'),
  ('C#CCC(NC(=O)c1ccc(NC(=O)c2ccc(C#N)cc2)cc1)C(=O)Nc1ccc(C(=O)Nc2ccc(C(=O)Nc3ccc(C(=O)O)cc3)c(O)c2OC(C)C)cc1 (stereo not drawn) [CN-CC-861 2, reference compound]', '0.02 mg/L'),
  ('C#CC[C@H](NC(=O)c1ccc(NC(=O)c2ccc(C#N)cc2)cc1)C(=O)Nc1ccc(C(=O)Nc2ccc(C(=O)Nc3ccc(C(=O)O)cc3)nc2OC(C)C)cc1', '> 64 mg/L'),
  ('C#CC[C@H](NC(=O)c1ccc(NC(=O)c2ccc(C#N)cc2)cc1)C(=O)Nc1ccc(C(=O)Nc2ccc(-c3nc4ccc(C(=O)O)cc4[nH]3)c(O)c2OC(C)C)cc1', '4 mg/L'),
  ('C#CC[C@H](NC(=O)c1ccc(NC(=O)c2ccc(C#N)cc2)cc1)C(=O)Nc1ccc(C(=O)Nc2ccc(-c3ccc(C(=O)O)cc3)c(O)c2OC(C)C)cc1', '> 64 mg/L'),
  ('C#CC[C@H](NC(=O)c1ccc(NC(=O)c2ccc(C#N)cc2)cc1)C(=O)Nc1ccc(C(=O)Nc2ccc3c(=O)n(-c4ccc(C(=O)O)cc4)cnc3c2OC(C)C)cc1 [Cmpd. 45b]', '8 mg/L'),
  ('C#CC[C@H](NC(=O)c1ccc(NC(=O)c2ccc(C#N)cc2)cc1)C(=O)Nc1ccc(C(=O)Nc2ccc(-c3cn(-c4ccc(C(=O)O)cc4)nn3)c(O)c2OC(C)C)cc1', '> 64 mg/L'),
  ('C#CC[C@H](NC(=O)c1ccc(NC(=O)c2ccc(C#N)cc2)cc1)C(=O)Nc1ccc(C(=O)Nc2ccc(C(=O)Nc3ccc(C(=O)O)cc3)c(O)c2OC)cc1', '0.5 mg/L'),
  ('CO[C@@H](C(N)=O)[C@H](NC(=O)c1ccc(NC(=O)c2ccc(C#N)cc2)cc1)C(=O)Nc1ccc(C(=O)Nc2ccc(C(=O)Nc3ccc(C(=O)O)cc3)c(O)c2OC(C)C)cc1 [CN861 1, reference compound]', '0.125 mg/L'),
  ('C#CC[C@H](NC(=O)c1ccc(NC(=O)c2ccc(C#N)cc2)cc1)C(=O)Nc1ccc(C(=O)Nc2ccc(C(=O)Nc3ccc(C(=O)O)cc3)c(Br)c2OC(C)C)cc1', '> 64 mg/L'),
  ('CO[C@@H](C(N)=O)[C@H](NC(=O)c1ccc(NC(=O)c2ccc(C#N)cc2)cc1)C(=O)Nc1ccc(C(=O)Nc2ccc(C(=O)N(C)c3ccc(C(=O)O)cc3)c(O)c2OC(C)C)cc1', '> 64 mg/L');
